Listed next: entries and their corresponding folding stability dG unfold.
Assay: folding stability dG unfold from chymotrypsin proteolysis; higher = more stable
Respond with the bare value in kcal/mol.

Here is how some sequences turned out for folding stability dG unfold.
seq_string="SAGGSAGGSAGGLGPDTPYATLSVTLTFTVRLKVRDPVTGKEYEIEYDVTLTFTFTVPASAGGSAGGSAGGS [r10_1116_TrMRF]" unit_name=kcal/mol numeric_value=5.84
seq_string="SAGGSAGGMTLLIRDPETNELVEVTVEEKDGKLTLTVRNKKTGETTEIEIPLDEEPIEIVLLEPSAGGSAGG [r6_465_TrROS_Hall]" unit_name=kcal/mol numeric_value=2.61
seq_string="SAGGSAGGSAGGGKLRIKLYHPETGKISEIEVEVPDKPLEEVLEELEKELGVEVVDASLESAGGSAGGSAGG [r7_590_TrMRF]" unit_name=kcal/mol numeric_value=1.68
seq_string="SAGMLVRIETLPPGAATEEVVPMTPEEAKEYLEAQGYTVSTDPANPTMTFSHPDATVTVTFEPVPADLRSAG [r5_248_JUSTAS]" unit_name=kcal/mol numeric_value=0.79

Exercise: Entry under review: SAGGGRARLIELKEARFNPETGVLELTALVEFPEIGTLVVFRIRVPLEGEPRIEIEVEVYPIKPGEASAGGS [r16_207_TrMRF] . Reported folding stability dG unfold?
Key: 4.31

Exercise: Data request, read-out folding stability dG unfold, for SAGGSAGGSAPLSLVIDFPSGPATITFLEDGTARITYTDDDKTETIPVADLLKIPADVDPRSAGGSAGGSAG [r3_256_TrMRF]
Key: 0.769

Exercise: // lookup folding stability dG unfold for SAGGSAGGGSLKYTPGVHRLTYYDPATGTTTTLTFTSEEEALEYLKKKYPDVPWKRNPDGTWVLSAGGSAGG [r6_288_JUSTAS]
Key: 2.15

Exercise: Return reported folding stability dG unfold; argument: SAGGSAGGMYTVIEEEFTFPPSNPDVVIEVEYPDLPDSYTITQSTFPEGDTYHVRVTITVPPNLSAGGSAGG [r6_482_JUSTAS]
Key: 0.762

Exercise: Item under review: SAGGSAPAKVEPLRVKIEFTPPNGEKHTFPMEIHRVHDNAIEIQDGGQPIRIPPNLDNIQITDIELSAGGSA [r15_510_TrROS] . Reported folding stability dG unfold?
Key: 0.558

Exercise: Item SAGGMVNLRLYNPATGEPIDFPVPKDVVEEMLKNGDLAALEALFPGFPIAKVEVDEGEEVPAVPPDEASAGG [r13_629_TrMRF] has what recorded folding stability dG unfold?
Key: 0.0323

Exercise: Look up folding stability dG unfold for this sequence: SAGGSAGGSAGWGWISVSITFEMEHYDEDGKPKHEHPMPMTIQIPVVRVDPKNGKLEPMPSAGGSAGGSAGG [r17_413_TrROS]
Key: 2.58

Exercise: Need folding stability dG unfold, item SAGGSAGGSAGAPPEGAKPVEEETVPIEIQMRNDDDGKPIMPIKFEVRVYKFPDGIFISISAGGSAGGSAGG [r11_415_TrROS]
Key: 2.91

Exercise: folding stability dG unfold lookup needed for SAEEEEVVEVELEIEIEMTPEELEELIEALRKAAEELGFEIEDIEIRVERKEDGTLRVTIRVKIRLPKPSAG [r14_109_TrROS_Hall] , thanks.
Key: 4.69

Exercise: I am curious: what folding stability dG unfold value has been reported for SAGGSGKVIEIPIELPEDKTITLRLDPETGKAVVEAEENVPLEKVIEAAKKIFEENGFELNGLDISSAGGSA [r2_497_TrMRF] ?
Key: 0.725
